assay-procedure: In vivo active ingredient release: tongue tissue and plasma amounts in healthy rats
Design: species or system rat
measurement-context: male, Sprague-Dawley, rat, plasma; healthy rats; supra-lingual formulation; 1 hour of application; mean ± SD
measure-name: concentration at 1 h (ng/mL)
// note: answer is a bare numeric in ng/mL

Can you share its concentration at 1 h? I mean this compound: COc1c(C)c2c(c(O)c1C/C=C(\C)CCC(=O)O)C(=O)OC2 [MPS, mycophenolate]
0.96

###

assay-procedure: In vivo active ingredient release: tongue tissue and plasma amounts in healthy rats
Design: species or system rat
measurement-context: male, Sprague-Dawley, rat, plasma; healthy rats; applied 4 hours, sampled 4 hours after removal (8 hours from beginning); mean ± SD
measure-name: concentration at 8 h (ng/mL)
// note: answer is a bare numeric in ng/mL

Can you share its concentration at 8 h? I mean this compound: COc1c(C)c2c(c(O)c1C/C=C(\C)CCC(=O)O)C(=O)OC2 [MPS, mycophenolate]
6.5

###

assay-procedure: In vivo active ingredient release: tongue tissue and plasma amounts in healthy rats
Design: species or system rat
measurement-context: male, Sprague-Dawley, rat, plasma; healthy rats; supra-lingual formulation; 2 hours of application; mean ± SD
Experimental: The instant example analyzes exemplary pharmaceutical formulations applied to the tongue of healthy rats for different time periods up to 4 hours. Concentrations of mycophenolic acid and oxaliplatin in tongue tissues were measured at the corresponding times and up to 12 hours from the beginning of the formulation application in rats. The following are groups of rats that were studied: • Group #1: Formulation applied for 0.5 hour and rat tongues were harvested for drug analysis. […]
measure-name: concentration at 2 h (ng/mL)
// note: answer is a bare numeric in ng/mL

Can you share its concentration at 2 h? I mean this compound: COc1c(C)c2c(c(O)c1C/C=C(\C)CCC(=O)O)C(=O)OC2 [MPS, mycophenolate]
2.09

###

assay-procedure: In vivo active ingredient release: tongue tissue and plasma amounts in healthy rats
Design: species or system rat
measurement-context: male, Sprague-Dawley, rat, plasma; healthy rats; supra-lingual formulation; 4 hours of application; mean ± SD
measure-name: concentration at 4 h (ng/mL)
// note: answer is a bare numeric in ng/mL

Can you share its concentration at 4 h? I mean this molecule: COc1c(C)c2c(c(O)c1C/C=C(\C)CCC(=O)O)C(=O)OC2 [MPS, mycophenolate]
1.76
